test: drug combination growth inhibition, ovarian cancer – cell-based, oncology-focused library, rucaparib conditional, profiling panel (AID 1508598); conditions: patient-derived ovarian cancer cells, CellTiter-Glo viability, 144 h; at 0.0195 µM; OCI-P5x cells; with rucaparib 20 µM; stronger effect = lower value; 100% = cells with rucaparib alone
What viability was measured for each of the following?
Give just the numeric value; % need not be written.

// lookup viability for CC(=O)Nc1cccc(-n2c(=O)n(C3CC3)c(=O)c3c(Nc4ccc(I)cc4F)n(C)c(=O)c(C)c32)c1
72.4

Fill in the blank: the reported viability of CCOc1ccn(-c2ccc(F)cc2)c(=O)c1C(=O)Nc1ccc(Oc2ccnc(N)c2Cl)c(F)c1 is ____.
101

Data request, read-out viability, for C=CC(=O)Nc1cc(Nc2nccc(-c3cn(C)c4ccccc34)n2)c(OC)cc1N(C)CCN(C)C
108

###

assay: viability loss with induced miR-34 in A549 – imaging, A549 dox-inducible miR-34, nuclei and caspase counts, primary screen (AID 1347080); details: A549 miR-34 inducible, Hoechst nuclei count, 48 h; measured here: total cells without miR-34 induction
What cell count was measured for each of the following?
Just the number, please, no unit attached.

Query (compound): CCCCNC(=O)NS(=O)(=O)c1ccc(CO)cc1 ; field requested: cell count
4890

Given the compound c1ccc(Oc2nc(NC3CCCCC3)c3[nH]cnc3n2)cc1 , what is its reported cell count?
8060

What does the record list as cell count for O=C(/C=C/c1cccc(C(=O)NO)c1)NO ?
4940

###

assay: viability loss with induced miR-34 in A549 – imaging, A549 dox-inducible miR-34, nuclei and caspase counts, primary screen (AID 1347080); settings: A549 miR-34 inducible, Hoechst nuclei count, 48 h; stronger effect = lower value; cell number ratio, induced over uninduced
For each entry below, report its fold change value.
Give the figure only, with no unit attached.

If you can, please state the reported fold change value of CCCCC[C@@H](O)/C=C/[C@H]1C(=O)C[C@H](O)[C@@H]1C/C=C\CCCC(=O)O .
0.996

Which fold change is reported for this molecule? CCCCCC/C=C/C=C\CCCCCCCC(=O)O
0.985

fold change lookup needed for COc1cc2c(cc1OC)C1CC(=O)C(CC(C)C)CN1CC2 (stereo unspecified) , thanks.
0.996

Could you tell me which fold change is on file for COc1ccc(-c2nc(N3CCOCC3)c3sc(CN(C)c4ncc(C(=O)NO)cn4)cc3n2)cn1 ?
1.02

Quick check: fold change of COC(=O)C1=CO[C@@H](O)[C@@H]2C(CO)=CC[C@H]12 ?
1

# lookup: fold change of Cc1ccc(S(=O)(=O)NCc2ccccc2)cc1
0.861

Fill blank: measured fold change of the molecule C=CCNC(=O)c1cc([N+](=O)[O-])cc2c(=O)[nH]c(Nc3ccc(Cl)c(Cl)c3)nc12 is ____.
0.926

What does the data say about its fold change? Entry: CN(C)CCN1C(=O)c2cccc3cc(N)cc(c23)C1=O
1.2

Would you mind telling me what fold change value was observed for NC(C(=O)O)c1nn[nH]n1 (stereo unspecified) ?
1.01

Find the recorded fold change belonging to c1ccc2c(NCCCCCCCNc3c4c(nc5ccccc35)CCCC4)c3c(nc2c1)CCCC3 and report it.
1.06

Bench note: what fold change did CN(C)CCCCSC(=N)N show?
0.981
